tested on: KHOS-240S; test: relative viability vs DMSO control (72 h) (fraction); higher = more viable cells; conditions: 3.333 µM
assayEndpoint: relative viability
Give bare numbers.

compound="CCN(CC)CCNC(=O)c1c(C)[nH]c(/C=C2\\C(=O)Nc3ccc(F)cc32)c1C [Sunitinib]" measuredvalue=0.204
compound="Cn1ncnc1[C@H]1c2n[nH]c(=O)c3cc(F)cc(c23)N[C@@H]1c1ccc(F)cc1 [Talazoparib]" measuredvalue=0.524
compound="O=C1NC(=O)[C@@H](c2cn3c4c(cccc24)CCC3)[C@@H]1c1c[nH]c2ccccc12 [Tivantinib]" measuredvalue=0.25
compound="CCC(=O)N1CC[C@H](Nc2ncnc3c2CN(c2cnc(OC)c(C(F)(F)F)c2)CC3)C1 [Leniolisib]" measuredvalue=0.9

Shifting focus to the compound that follows.
Qu. Param item = CC(C)NC[C@@H](C(=O)N1CCN(c2ncnc3c2[C@H](C)C[C@H]3O)CC1)c1ccc(Cl)cc1 [Ipatasertib] ; retrieve measured relative viability.
Ans. 0.823
